System: OVCAR-8
Assay: NCI tumour cell line growth inhibition, 48 h
Activity calls are given as the source filed them. Cut-off read from the data, not from the text of the source: active = GI50 up to about 1.1 µM and inactive = higher.
Reported GI50 values follow for various compounds

compound: COc1cccc2c1C(=O)c1c(O)c3c(c(O)c1C2=O)C[C@@](O)(/C(C)=N\O)C[C@@H]3OC1CC(N)C(O)C(C)O1 (stereo partly drawn)
systemName: OVCAR-8
GI50: 1.15 µM (inactive)

What value of GI50 has been recorded for this entry: "Cc1cc2nc(N3C(=O)/C(=C/c4ccc(N(C)C)cc4)N=C3c3ccccc3)sc2cc1C"
32.3 µM (inactive)

Do the same for "Cc1cc(S(=O)(=O)O)ccc1/N=N/c1c(O)ccc2ccccc12" please
> 100 µM (inactive)

Do the same for N#CC(c1ccc(Cl)cc1)c1cccc(C(C#N)c2ccc(Cl)cc2)n1 (stereo not drawn) please
55.1 µM (inactive)
